Values from patent US7906310B2

Test: Stability assay: residual activity after incubation with 1 mM inhibitor, measured by pNA assay
Format: physicochemical
Design: key: fraction of activity at 0 h incubation (0.80 = 80%)
Conditions: incubation time 164.0 hours; 1 mM Cu2+; 25° C., pH 7, 0.1% K-sorbate; relative to 0 hours
Residual Enzyme Activity vs 0.8: at or above is yes (1), below is no (0).

Worked cases, answers included:
Protease 11: protease from Nocardiopsis prasina DSM 15648, amino acids 1-188 of SEQ ID NO: 6 (protein, listed as Nocardiopsis prasina) ATGPLPQSPTPEADAVSMQEALQRDLGLTPLEADELLAAQDTAFEVDEAAAAAAGDAYGGSVFDTETLELTVLVTDAASVEAVEATGAGTELVSYGIEGLDEIIQDLNAADAVPGVVGWYPDVAGDTVVLEVLEGSGADVSGLLADAGVDASAVEVTSSAQPELYADIIGGLAYTMGGRCSVGFAATN	no (0)
Protease 18: protease from Nocardiopsis dassonvillei subsp. dassonvillei DSM 43235, amino acids 1-188 of SEQ ID NO: 12 (protein, Nocardiopsis dassonvillei subspecies dassonvillei) APAPVPQTPVADDSAASMTEALKRDLDLTSAEAEELLSAQEAAIETDAEATEAAGEAYGGSLFDTETLELTVLVTDASAVEAVEATGAQATVVSHGTEGLTEVVEDLNGAEVPESVLGWYPDVESDTVVVEVLEGSDADVAALLADAGVDSSSVRVEEAEEAPQVYADIIGGLAYYMGGRCSVGFAAT	yes (1)
Protease 35: protease from Nocardiopsis prasina DSM 15649, amino acids 1-188 of SEQ ID NO: 8 (protein, listed as Nocardiopsis prasina) ATGPLPQSPTPEADAVSMQEALQRDLGLTPLEADELLAAQDTAFEVDEAAAEAAGDAYGGSVFDTETLELTVLVTDSAAVEAVEATGAGTELVSYGITGLDEIVEELNAADAVPGVVGWYPDVAGDTVVLEVLEGSGADVGGLLADAGVDASAVEVTTTEQPELYADIIGGLAYTMGGRCSVGFAATN	no (0)
Brachysporiella protease: protease from Brachysporiella gayana CGMCC 0865, amino acids 1-186 of SEQ ID NO: 14 (protein, listed as Brachysporiella gayana) MELTSLIAALAVILPIAYGVPMDATTNLSPKVLAAMKRDLGLDAREATARVTFERRAGDVIEELRSSLGDSFAGAWVTDGKVINIGVTDQALVSKVKEAGAEPMVMKNSLGKLQEAKKKLDQIIKEKPKTLSTSGKPGIATYYVDIETNKLIITALSTSITQAEDLAKEVGLSESEFEVRKTEKMP	yes (1)

Qu. Could you verify whether the entry Protease 10: known protease derived from Nocardiopsis sp. NRRL 18262, amino acids 1-188 of SEQ ID NO: 2 (protein) ADIIGGLAYTMGGRCSVGFAATNAAGQPGFVTAGHCGRVGTQVTIGNGRGVFEQSVFPGNDAAFVRGTSNFTLTNLVSRYNTGGYATVAGHNQAPIGSSVCRSGSTTGWHCGTIQARGQSVSYPEGTVTNMTRTTVCAEPGDSGGSYISGTQAQGVTSGGSGNCRTGGTTFYQEVTPMVNSWGVRLRT shows Residual Enzyme Activity of no less than 0.8?
Ans. no (0)

Qu. Could you verify whether the entry Metarhizium protease: known protease derived from Metarhizium anisopliae, amino acids 1-188 of SEQ ID NO: 4 (protein, listed as Metarhizium anisopliae) MELTKFLALLAVILPVAYGAPTQAASLHPQILEAMKRDLGLNAEQATVRVAREIHATDVIEQLRSSVAFAGAWIDADVLYIGITDQALADEVTAAGATPIVMTNSLSKLEKAKEDLDKIFIGRANTLETSSDTSSGIASYFVDVAANKLVIEALADSHGHAEQLAAQVGLTSEFEVRTVETMPTTMAT shows Residual Enzyme Activity of no less than 0.8?
Ans. no (0)

Qu. Could you verify whether the entry Protease 08: protease from Nocardiopsis alba DSM 15647, amino acids 1-188 of SEQ ID NO: 10 (protein, listed as Nocardiopsis alba) ATGPLPQSPTPDEAEATTMVEALQRDLGLSPSQADELLEAQAESFEIDEAATAAAADSYGGSIFDTDSLTLTVLVTDASAVEAVEAAGAEAKVVSHGMEGLEEIVADLNAADAQPGVVGWYPDIHSDTVVLEVLEGSGADVDSLLADAGVDTADVKVESTTEQPELYADIIGGLAYTMGGRCSVGFAA shows Residual Enzyme Activity of no less than 0.8?
Ans. no (0)
